These data points were gathered from PubChem BioAssay (NCI).

- System: SK-MEL-28 melanoma
- procedure-summary: NCI tumour cell line growth inhibition, 48 h
Where a SMILES comes first, the peptide text is derived from it. The star is where a group is joined. Trt = c1ccc(C(c2ccccc2)(c2ccccc2)*)cc1; Cbz = O=C(OCc1ccccc1)*

# molecule, TGI
measured = [
    ("O=C(O)c1nc2ccccc2nc1Nc1ccc(Cl)c(Cl)c1", "75 µM"),
    ("COC(=O)C(CO)NC(=O)C(CSC(c1ccccc1)(c1ccccc1)c1ccccc1)NC(=O)OCc1ccccc1 (stereo unspecified) (Cbz-Cys(Trt)-Ser-OMe; configuration not given here)", "34 µM"),
    ("CC1=CC2C(C=C1)S(=O)(=O)N1CC21c1ccccc1 (stereo unspecified)", "> 100 µM"),
    ("O=C1c2ccccc2C(=O)c2cc3c(cc21)CS(=O)C3", "> 100 µM"),
    ("Nc1nc2c(N)cc(C(F)(F)F)cc2nc1-c1ccccc1", "> 100 µM"),
    ("O=S1(=O)N2CN3CN(C2)CN1C3", "225 µM"),
    ("CCOC(=O)Cc1cc(OC)c(OC)cc1/C(Cl)=C(\\CO)c1ccc(OC)c(OC)c1", "> 100 µM"),
    ("CC1CC2C3CCC4=CC(=O)C=CC4(C)C3(F)C(O)CC2(C)C1(O)C(=O)COP(=O)(O)O (stereo unspecified)", "> 500 µM"),
    ("CC(C)/C=C1\\CCC(CN(C)C)C1=O (stereo unspecified)", "5.07 µM"),
    ("CCOC(=O)CSc1cc(Cl)c(C)cc1S(=O)(=O)/N=C(/N=C/c1ccc([N+](=O)[O-])s1)NNC", "29.7 µM"),
    ("CC(C)[C@@H]1CC[C@@H](C)C[C@H]1OC(=O)c1c2n(c3ccccc13)C[C@H]1OC(C)(C)O[C@@H]21", "> 100 µM"),
    ("C[C@@H](CC(O)C(O)C(C)(C)O)C1CCC23CC12CCC1[C@@]2(C)CCC(O)C(C)(C)C2CC(OC2OC(CO)C(O)C(O)C2O)[C@]13C (stereo partly specified)", "> 10 µM"),
    ("COc1ccc(Nc2nc3ccccc3n3cccc23)cc1OC", "28.9 µM"),
    ("CC1(C)OP(=O)(c2ccccc2)C=C1Sc1ccc([N+](=O)[O-])cc1[N+](=O)[O-] (stereo unspecified)", "> 100 µM"),
    ("COc1cc([N+](=O)[O-])c(OC)cc1-c1nc2sc(C)c(C)n2c1/C(N)=N/C(=N)N", "> 100 µM"),
    ("O=C1/C(=C/c2ccc(Cl)c(Cl)c2)CN(C(=O)C(Cl)Cl)C/C1=C\\c1ccc(Cl)c(Cl)c1", "0.634 µM"),
    ("CCOC(=O)C(C)(NC(=O)c1ccc(NCc2ccc3nc(NC(=O)c4ccccc4)nc(NC(=O)c4ccccc4)c3c2)cc1)C(=O)OCC", "27.6 µM"),
    ("C[C@H]1CC[P+](Cc2ccccc2)(c2ccccc2)C1 (stereo partly specified)", "> 100 µM"),
    ("[N-]=[N+]=Nc1ccccc1-c1ccccc1[N+](=O)[O-]", "> 100 µM"),
    ("O=C1NC(=NCCc2ccc(F)cc2)S/C1=C\\c1ccc2ncccc2c1", "> 25 µM"),
    ("Cn1c(=O)c2[nH]c(N=O)nc2n(C)c1=O", "> 100 µM"),
]

====

- Test system: HL-60(TB) leukemia
- procedure-summary: NCI tumour cell line growth inhibition, 48 h
Measured GI50 by item

# compound, GI50
rows = [
    ("O=C1NC(=NCc2ccccc2Cl)S/C1=C\\c1ccc2ncccc2c1", "10100 nM"),
    ("NC1NC=NC2C1N=CN2C1OC(CO)C2[O][Sn][O]C21 (stereo not given)", "> 100000 nM"),
    ("O=C1NC(=NCCc2ccc(F)cc2)S/C1=C\\c1ccc2ncccc2c1", "> 25000 nM"),
    ("O=C1Nc2ccc(Br)cc2C12CC(c1ccccc1)=NN2 (stereo not given)", "2770 nM"),
    ("CN(C)c1ccc(/C=C\\c2ccnc3ccccc23)cc1", "> 20200 nM"),
    ("C=C1C(=O)O[C@H]2[C@H]1CC/C(COC(=O)c1cc(OC)c(OC)c(OC)c1)=C\\CC[C@@]1(C)O[C@@H]21", "711 nM"),
    ("CCOC(=O)c1c(-c2ccccc2)[n+](=O)c2cc(Cl)c(Cl)cc2n1[O-]", "2680 nM"),
    ("COc1cc(CNCCCCCCN2C(=O)c3cccc4cccc(c34)C2=O)ccc1O", "3330 nM"),
    ("COc1cc(/C=C2\\C(=O)N(Cc3ccc(Cl)cc3)c3ccccc32)cc(OC)c1OC", "1940 nM"),
    ("COc1ccc(C(O)c2cc3c(N)c(C(=O)Nc4ccc(Cl)cc4)sc3nc2C)cc1 (stereo not given)", "1910 nM"),
]

====

- System: HT29 colon
- procedure-summary: NCI tumour cell line growth inhibition, 48 h; in the data active = GI50 below about 0.43 µM; inactive = the rest
Classes used: class 1 for active, class 0 for inactive

# compound, group-label
measured = [
    ("O=C1CC(c2c[nH]c3ccc(F)cc23)C(=O)N1 (configuration not stated)", "class 0"),
    ("COc1cc2c(c(OC)c1OC)-c1ccc(NN(C(=O)c3ccccc3)C(=O)c3ccccc3)c(=O)cc1[C@@H](NC(C)=O)CC2 (tested in a mixture with another compound)", "class 0"),
    ("O=C1[C@@H]2C(c3ccc(Br)cc3)=NO[C@@H]2C(=O)N1c1ccc(Cc2ccc(N3C(=O)[C@H]4C(c5ccc(Br)cc5)=NO[C@H]4C3=O)cc2)cc1", "class 0"),
    ("COc1cc([N+](=O)[O-])c(OC)cc1-c1nc2sc(C)c(C)n2c1/C(N)=N/C(=N)N", "class 0"),
    ("O=C1/C(=C/c2ccc(Cl)c(Cl)c2)CN(C(=O)C(Cl)Cl)C/C1=C\\c1ccc(Cl)c(Cl)c1", "class 1"),
    ("O=C1NC(=S)S/C1=C\\c1cn(-c2ccccc2)nc1-c1ccccc1", "class 0"),
    ("COc1cc(CNCCCCCCN2C(=O)c3cccc4cccc(c34)C2=O)ccc1O", "class 0"),
    ("C#Cc1cccc(Nc2ncnc3cc(NC(=O)CCl)ccc23)c1", "class 0"),
    ("CC(C)(C)c1cc(C(=O)Nc2ccccc2C(=O)NCCN)cc(C(C)(C)C)c1", "class 0"),
    ("N#CCn1c(=O)c(Oc2ccc(F)cc2F)cc2cnc(NC3CCOCC3)nc21", "class 0"),
    ("COc1cc(/C=C2\\C(=O)N(Cc3ccc(Cl)cc3)c3ccccc32)cc(OC)c1OC", "class 0"),
    ("CC(C)=CCc1cc2c(cc1O)C1=C(C(=O)C3=C(C1=O)S(=O)(=O)CCN3)C(C=C(C)C)O2 (configuration not stated)", "class 0"),
    ("CSc1ccc(C2=C(c3ccccc3)C(=O)OC2)cc1", "class 1"),
    ("COc1cc2oc(-c3cccc(C(=O)Nc4ccc(Cl)cc4)c3)cc(=O)c2c(OC)c1OC", "class 0"),
    ("C[C@@]1([C@H](OC(=O)c2ccccc2)C(N)=O)CO1", "class 0"),
    ("COC1(CC[C@@H](C)COC2OC(CO)C(O)C(O)C2O)O[C@H]2C[C@H]3[C@@H]4CC=C5C[C@@H](OC6OC(CO)C(OC7OC(C)C(O)C(O)C7O)C(O)C6OC6OC(C)C(O)C(O)C6O)CC[C@]5(C)[C@H]4CC[C@]3(C)[C@H]2[C@@H]1C (some centres not stated)", "class 0"),
    ("Cn1cc(/C=C\\[N+](=O)[O-])c2ccccc21", "class 0"),
]

====

- Tested on: SR leukemia
- procedure-summary: NCI tumour cell line growth inhibition, 48 h
reported-metric: TGI

# molecule, result
records = [
    ("CC(C)[C@@H]1CC[C@@H](C)C[C@H]1OC(=O)c1c2n(c3ccccc13)C[C@H]1OC(C)(C)O[C@@H]21", "24.1 µM"),
    ("COCC(C)(C)N=CN1Cc2cc3ccccc3nc2C1", "> 100 µM"),
    ("COc1ccc(Nc2nc3ccccc3n3cccc23)cc1OC", "37.7 µM"),
    ("CC1=NN=C(C)C1N=Nc1ccc2nc(C)[nH]c2c1", "48.3 µM"),
    ("c1cc(N[C@@H]2CCNC2)nc(-c2cnc3ccc(-c4cn[nH]c4)cn23)c1", "10.1 µM"),
    ("Nc1ccc2n[se]nc2c1", "> 100 µM"),
    ("C[C@H]1CC[P+](Cc2ccccc2)(c2ccccc2)C1 (stereo partly drawn)", "> 100 µM"),
    ("O=C1NC(=NCc2ccccc2Cl)S/C1=C\\c1ccc2ncccc2c1", "> 19.6 µM"),
    ("FC(F)(F)c1ccccc1C1SCC2=Nc3ccccc3CN21 (stereo not drawn)", "> 100 µM"),
    ("C/C(=N\\O)c1ccc2ccc3ccccc3c2c1", "48.7 µM"),
    ("Nc1nnc2c(-c3ccccc3)[nH]nc2n1", "> 100 µM"),
    ("Nc1nc2c(N)cc(C(F)(F)F)cc2nc1-c1ccccc1", "> 100 µM"),
    ("COc1ccc(-c2cc(-c3ccc(Nc4nc(Nc5ccccc5)nc(Nc5ccc(Cl)cc5)n4)cc3)nc(N)n2)cc1", "18.7 µM"),
    ("CC(C)(C)N=CN1C=Cc2nc3ccccc3cc2C1", "> 100 µM"),
    ("COc1cccc2c1-c1nc(N)c3c(OC)cccc3c1C2=O", "> 100 µM"),
    ("CN=c1ss/c(=N\\C(=S)N(C)C)n1C", "> 100 µM"),
    ("O=C1Oc2ccccc2C1C/C(=N\\Nc1ccccc1)c1ccccc1O (stereo not drawn)", "58.1 µM"),
    ("O=C(Nc1ccc(Oc2ccc(F)cc2)cc1)[C@@H]1C[C@@H](Cc2ccc(F)cc2)CN1C(=O)Cn1ccnn1", "14.2 µM"),
    ("COC1C2C[C@@H](O)CCC2C(C(=O)OCCl)C[C@H]1O (stereo partly drawn)", "> 100 µM"),
    ("COc1ccc(C(O)c2cc3c(N)c(C(=O)Nc4ccc(Cl)cc4)sc3nc2C)cc1 (stereo not drawn)", "> 100 µM"),
    ("Cc1ccc(/C=C2\\Sc3scc(-c4ccccc4)[n+]3C2=O)cc1", "26.4 µM"),
    ("CCOC1=C2N=C(C(CC)c3ccccc3F)N=C2C(=O)c2ccccc21 (stereo not drawn)", "> 100 µM"),
    ("CCC(NC(C)c1ccccc1)C(=O)c1ccc(OCc2ccccc2)c(OCc2ccccc2)c1 (stereo not drawn)", "> 100 µM"),
]
